Biological target: Penicillin-binding protein 3 (Pseudomonas aeruginosa)
Sequence (Q51504 whole entry): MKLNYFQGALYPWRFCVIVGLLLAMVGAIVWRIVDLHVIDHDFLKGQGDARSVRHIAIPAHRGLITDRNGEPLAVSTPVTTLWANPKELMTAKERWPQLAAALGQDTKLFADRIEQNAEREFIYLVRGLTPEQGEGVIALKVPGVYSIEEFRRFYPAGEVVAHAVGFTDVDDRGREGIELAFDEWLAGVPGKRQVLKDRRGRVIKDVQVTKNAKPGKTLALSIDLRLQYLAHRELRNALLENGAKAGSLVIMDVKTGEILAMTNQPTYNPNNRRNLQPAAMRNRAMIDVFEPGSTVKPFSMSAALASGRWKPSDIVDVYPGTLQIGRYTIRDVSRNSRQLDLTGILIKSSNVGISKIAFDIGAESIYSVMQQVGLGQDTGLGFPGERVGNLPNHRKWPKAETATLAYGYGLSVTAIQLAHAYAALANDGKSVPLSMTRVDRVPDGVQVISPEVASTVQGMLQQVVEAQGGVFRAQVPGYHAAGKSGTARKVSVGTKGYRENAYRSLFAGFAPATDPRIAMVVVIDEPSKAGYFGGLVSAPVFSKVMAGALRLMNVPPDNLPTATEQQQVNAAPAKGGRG
Experiment: Inhibition of bocillin FL binding to Pseudomonas aeruginosa PAO1 penicillin-binding protein 3
The reader will find reported pIC50 values listed item by item below.
Note on pIC50: it is the negative log10 of concentration, concentration in mol/L.

Recorded pIC50 of `Nc1nc(/C(=N/O)C(=O)N[C@@H]2C(=O)N3C(C(=O)O)=C(/C=C4\CCN([C@@H]5CCNC5)C4=O)CS[C@H]23)ns1` , please.
6.73

Entry C[C@@H](O)[C@H]1C(=O)N2C(C(=O)O)=C(SCCNC=N)C[C@H]12 [IMIPENEM ANHYDROUS] please
6.48

Entry C[C@H]1[C@H](NC(=O)/C(=N\OC(C)(C)C(=O)O)c2csc(N)n2)C(=O)N1S(=O)(=O)O (stereo in doubt) please
7.16

Entry `CO/N=C(\C(=O)N[C@@H]1C(=O)N2C(C(=O)[O-])=C(C[N+]3(C)CCCC3)CS[C@H]12)c1csc(N)n1` please
6.68

Entry `CC(C)(O/N=C(\C(=O)N[C@@H]1C(=O)N2C(C(=O)[O-])=C(C[n+]3ccccc3)CS[C@H]12)c1csc(N)n1)C(=O)O` please
6.74

* * *

Target: MecA (Staphylococcus aureus)
Sequence (Q7DHH4 whole entry): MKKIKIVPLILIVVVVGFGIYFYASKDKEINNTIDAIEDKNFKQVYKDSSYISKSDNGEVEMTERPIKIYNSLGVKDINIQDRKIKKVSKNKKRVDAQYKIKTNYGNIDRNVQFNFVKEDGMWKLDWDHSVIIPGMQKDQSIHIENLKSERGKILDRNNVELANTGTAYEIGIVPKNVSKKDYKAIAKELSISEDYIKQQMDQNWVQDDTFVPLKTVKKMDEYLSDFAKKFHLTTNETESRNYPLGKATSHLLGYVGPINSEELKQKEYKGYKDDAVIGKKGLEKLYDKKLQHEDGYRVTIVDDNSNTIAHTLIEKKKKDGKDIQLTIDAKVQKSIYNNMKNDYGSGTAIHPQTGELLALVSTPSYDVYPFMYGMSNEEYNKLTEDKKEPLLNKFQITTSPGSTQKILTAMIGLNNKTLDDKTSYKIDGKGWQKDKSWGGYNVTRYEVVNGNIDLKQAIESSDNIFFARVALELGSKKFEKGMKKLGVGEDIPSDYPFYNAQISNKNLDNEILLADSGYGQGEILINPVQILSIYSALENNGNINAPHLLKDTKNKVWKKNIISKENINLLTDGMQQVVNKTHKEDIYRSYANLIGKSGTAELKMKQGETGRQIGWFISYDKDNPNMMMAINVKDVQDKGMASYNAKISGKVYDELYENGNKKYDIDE
Assay: Inhibition of bocillin FL binding to methicillin-resistant Staphylococcus aureus OC 3726 penicillin-binding protein 2a
pIC50: −log10 of the molar value.
readout-label: pIC50

Recorded pIC50 of CO/N=C(\C(=O)N[C@@H]1C(=O)N2C(C(=O)O)=C(CSc3nc(=O)c(O)nn3C)CS[C@H]12)c1csc(N)n1 (stereo in doubt) , please.
< 4.05

Entry `CC(C)(O/N=C(\C(=O)N[C@@H]1C(=O)N2C(C(=O)[O-])=C(C[n+]3ccccc3)CS[C@H]12)c1csc(N)n1)C(=O)O` please
< 4.04

Entry `Nc1nc(/C(=N/O)C(=O)N[C@@H]2C(=O)N3C(C(=O)O)=C(/C=C4\CCN([C@@H]5CCNC5)C4=O)CS[C@H]23)ns1` please
5.77

* * *

Hi! I'm sharing some pIC50 results obtained with Penicillin-binding protein 2 (Staphylococcus aureus, UniProt Q53729).
Sequence (Q53729 whole entry): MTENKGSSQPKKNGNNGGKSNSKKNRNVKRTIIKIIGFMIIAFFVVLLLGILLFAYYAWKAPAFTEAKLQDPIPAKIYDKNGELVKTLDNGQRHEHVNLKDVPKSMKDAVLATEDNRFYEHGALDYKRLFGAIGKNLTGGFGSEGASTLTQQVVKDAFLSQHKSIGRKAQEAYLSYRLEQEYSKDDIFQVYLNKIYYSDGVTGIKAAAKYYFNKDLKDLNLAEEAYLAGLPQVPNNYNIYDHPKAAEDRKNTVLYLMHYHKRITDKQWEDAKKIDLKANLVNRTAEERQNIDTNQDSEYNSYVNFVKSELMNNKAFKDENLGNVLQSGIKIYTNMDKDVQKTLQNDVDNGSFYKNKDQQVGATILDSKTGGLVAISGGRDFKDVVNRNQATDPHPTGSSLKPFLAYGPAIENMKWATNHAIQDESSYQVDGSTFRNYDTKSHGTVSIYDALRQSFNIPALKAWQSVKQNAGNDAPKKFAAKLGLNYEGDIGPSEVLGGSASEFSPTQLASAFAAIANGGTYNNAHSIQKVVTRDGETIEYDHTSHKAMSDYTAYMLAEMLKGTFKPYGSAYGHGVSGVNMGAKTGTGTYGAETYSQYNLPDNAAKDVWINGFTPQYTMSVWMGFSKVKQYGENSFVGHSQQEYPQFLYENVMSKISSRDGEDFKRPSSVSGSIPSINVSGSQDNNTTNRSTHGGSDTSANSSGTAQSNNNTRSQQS
Note on pIC50: it is the negative log10 of concentration, concentration in mol/L.

molecule | pIC50
CO/N=C(\C(=O)N[C@@H]1C(=O)N2C(C(=O)O)=C(CSc3nc(=O)c(O)nn3C)CS[C@H]12)c1csc(N)n1 (stereo in doubt) | 6.74

Recorded pIC50 of `Nc1nc(/C(=N/O)C(=O)N[C@@H]2C(=O)N3C(C(=O)O)=C(/C=C4\CCN([C@@H]5CCNC5)C4=O)CS[C@H]23)ns1` , please.
6.03

* * *

Experiment: Inhibition of bocillin FL binding to Pseudomonas aeruginosa PAO1 penicillin-binding protein 1a
The reader will find reported IC50 values listed item by item below.
The reply should contain only the number, in mg/L.

Guide cases for IC50, answers given:
compound | uom | IC50
Nc1nc(/C(=N/O)C(=O)N[C@@H]2C(=O)N3C(C(=O)O)=C(/C=C4\CCN([C@@H]5CCNC5)C4=O)CS[C@H]23)ns1 | mg/L | 0.1
C[C@@H](O)[C@H]1C(=O)N2C(C(=O)O)=C(SCCNC=N)C[C@H]12 [IMIPENEM ANHYDROUS] | mg/L | 0.5
CO/N=C(\C(=O)N[C@@H]1C(=O)N2C(C(=O)[O-])=C(C[N+]3(C)CCCC3)CS[C@H]12)c1csc(N)n1 | mg/L | 0.1
CC(C)(O/N=C(\C(=O)N[C@@H]1C(=O)N2C(C(=O)[O-])=C(C[n+]3ccccc3)CS[C@H]12)c1csc(N)n1)C(=O)O | mg/L | 0.2

# input for lookup
Recorded IC50 of C[C@H]1[C@H](NC(=O)/C(=N\OC(C)(C)C(=O)O)c2csc(N)n2)C(=O)N1S(=O)(=O)O (stereo in doubt) , please.
2
